Assignment: determine reported GI50 for the given compounds.
# Tested on: MOLT-4
# protocol notes: NCI tumour cell line growth inhibition, 48 h
Active and inactive are the calls of the source. Cut-off read from the data, not from the text of the source: active = GI50 up to about 1.1 µM and inactive = higher.

Retrieve GI50 measured for CCOC(=O)c1nc2ccc(C(F)(F)F)cc2nc1NCc1ccc(OC)c(OC)c1 and print it.
34.9 µM (inactive)

Give GI50 for the following compound: CC(C)Oc1c(N(Cc2ccccc2)c2ccccc2C2SCCCS2)c(=O)c1=O
3.63 µM (inactive)

Kindly indicate its recorded GI50. Item: OC1(c2ccc(Cl)cc2)c2ccccc2C2=NCc3ccccc3CN21 (stereo not given)
3.37 µM (inactive)

Report GI50, nothing else, for this compound: CCOC(=O)/C(C#N)=C(/NS(=O)(=O)c1cc(C)c(Cl)cc1[S-])[n+]1ccc(N(C)C)cc1
> 100 µM (inactive)

Determine its reported GI50: CCOC(=O)c1c(N)sc2c1C(C(=O)OCC)CCCC2 (stereo not given)
29.6 µM (inactive)

Indicate its recorded GI50; the compound in question is CC1=NNC(=O)C1C(CC(=O)c1c[nH]c2ccccc12)C(=O)O (stereo not given)
49 µM (inactive)

Identify measured GI50 corresponding to O=C(OCc1ccccc1C1CSCSC1)c1cc(C(=O)OCc2ccccc2C2CSCSC2)c(C(=O)OCc2ccccc2C2CSCSC2)cc1C(=O)OCc1ccccc1C1CSCSC1
> 100 µM (inactive)

Respond only with GI50 recorded for NC(=O)C1=CC2C3C=CC2(O)C(=O)OC3O1 (stereo not given)
1.88 µM (inactive)

Return the recorded GI50 value; entry: O=[N+]([O-])c1ccccc1/C=N/C12CC3CC(CC(C3)C1)C2
34 µM (inactive)

Please report the measured GI50 for Nc1ncnc2c1ncc(=O)n2C1CC(O)C(CO)O1 (stereo not given)
> 100 µM (inactive)

Read the entry O=C(CC1C=Cc2ccccc2N1C(=O)c1ccccc1)c1ccccc1 (stereo not given) and write its reported GI50.
11.7 µM (inactive)

In one line, give reported GI50 of the entry C/C=C(/C)C(=O)O[C@H]1CCN2CC=C(COC(=O)[C@@](O)([C@H](C)OC)C(C)(C)O)[C@H]12 .
> 100 µM (inactive)

Query GI50 for COc1cc(C2S/C(=C/c3ccccc3)C(=O)N2c2cccc(NC(C)=O)c2)cc(OC)c1OC (stereo not given)
30.6 µM (inactive)

Supply measured GI50 of CN(C)C(=O)c1ccc([N+](=O)[O-])cc1 in your reply.
> 100 µM (inactive)

Given the compound O=C1/C(=C\c2cccc(Oc3ccccc3)c2)SC(c2ccccc2)N1Cc1ccccc1 (stereo not given) , write its reported GI50.
30.1 µM (inactive)

For COC1=CC(=O)N(C(=O)C2CSC(C(CO)NC(=O)c3csc(/C=N/O)n3)=N2)C1 (stereo not given) , write its GI50.
> 100 µM (inactive)

Answer with the recorded GI50 of O=Cc1c(Cn2ccnc2)c2cc([N+](=O)[O-])ccc2n1Cc1ccccc1 only.
> 100 µM (inactive)

Quote GI50 reported for Cc1cc(O)nc(/N=C(\N)Nc2ccc(Cl)cc2)n1 please.
> 100 µM (inactive)

Tell me measured GI50 for CC1(C)C2CCC13C(=O)C1OC3(C2)C2C(=O)N(c3ccccc3)C(=O)C12 (stereo not given) please.
> 100 µM (inactive)

Annotate the compound O=S(=O)(O)c1ccc2c(/N=N\c3cccc4ccccc34)c(O)c(S(=O)(=O)O)cc2c1 with its measured GI50.
> 100 µM (inactive)
